Target: HCV NS4B (Hepatitis C virus genotype 1b)
Construct: NS4B was cloned, expressed and purified to establish an assay; made in house
Experiment: NS4B binding assay (quenching of intrinsic protein fluorescence)
Details: Table 4, thienopyrazole compound; read-out: Kd
quantity kind: Kd (µM)
The reply should contain only the number, in µM.

Tested system HCV NS4B (Hepatitis C virus genotype 1b); Kd recorded for CC(=O)c1ccc(NC(=O)c2cc3c(C)nn(-c4ccccc4)c3s2)cc1 was 1

----------
Target: HCV NS4B (Hepatitis C virus genotype 1b)
Construct: NS4B was cloned, expressed and purified to establish an assay; made in house
Assay: NS4B binding assay (quenching of intrinsic protein fluorescence)
quantity kind: Kd (µM)
Number in µM, nothing else.

According to the records, this compound CCCCc1c(C)nn(-c2nnc3c4ccccc4n(C)c3n2)c1C displays Kd of 4.3

The reported Kd of the compound CC(C)Oc1cccc(C(=O)Nc2ccc(N3CCOCC3)c(Cl)c2)c1 was 4.43

Consider O=C(NCc1cccs1)c1cc2nc(-c3ccco3)cc(C(F)(F)Cl)n2n1 . Its measured Kd is 0.662

Reported Kd of COC(=O)c1c(NC(=O)C(C)C)sc(C(=O)Nc2ccc(Cl)cc2)c1C : 0.842

----------
Would you kindly list pKd for each of these compounds?
Target: HCV NS4B (Hepatitis C virus genotype 1b)
Construct: NS4B was cloned, expressed and purified to establish an assay; made in house
Assay: NS4B binding assay (quenching of intrinsic protein fluorescence)
Settings: Table 5, aminothiophene compounds; read-out: Kd
The quantity pKd is defined as the negative base-10 logarithm of the molar concentration.

Reported pKd ( COC(=O)c1c(NC(=O)Cc2cccs2)sc(C(=O)Nc2ccc(Cl)cc2)c1C [Example 1] ) = 6.52

Form: compound = COC(=O)c1c(NC(=O)c2ccc3c(c2)OCO3)sc(C(=O)NC2CCCCC2)c1C [Example 2] ; pKd = 5.40

Recorded pKd (compound CCC(=O)Nc1sc(C(=O)Nc2ccc(C)cc2)c(C)c1C(=O)OC [Example 4] ): 5.78

Entry CCC(=O)Nc1sc(C(=O)Nc2ccc(Cl)cc2)c(C)c1C(=O)OC [Example 5] , pKd reported as 5.60

----------
System: HCV replicon (BB7 sequence) in Huh-7-Clone A cells
Test: HCV replicon NS5A ELISA, inhibition of viral RNA replication
Format: cell-based, hepatitis C virus
Settings: Hepatitis C virus; Table 5; NS5A protein, 72-hour incubation; read-out: ELISA EC50
Method: Antiviral activity of representative compounds of the invention was evaluated in a human liver-derived cell line (Huh-7-Clone A) containing the HCV replicon (BB7 sequence) (See Lohmann et al. Science. 1999, 285:110-3; Blight K J et al., Science. 2000, 290:1972-4; Pietschmann, T. et al., J. Virol. 2001, 73:1252-1264; and Lohmann, V. et al., J. Virol. 2001, 75:1437-1449). The HCV replicon is a subgenomic viral RNA that expresses the HCV proteins required for its own replication. […]
Give measured EC50 for each item. Keep answers brief.
API: value field is a number in µM; no unit string.

For CCC(=O)Nc1sc(C(=O)Nc2ccc(C)cc2)c(C)c1C(=O)OC the molecule record lists EC50 as 3.2

Consider CCC(=O)Nc1sc(C(=O)Nc2ccc(Cl)cc2)c(C)c1C(=O)OC . Its measured EC50 is 4.55

Value of EC50 reported for the molecule COC(=O)c1c(NC(=O)Cc2cccs2)sc(C(=O)Nc2ccc(Cl)cc2)c1C is 0.7

Value of EC50 reported for the molecule COC(=O)c1c(NC(=O)c2ccc3c(c2)OCO3)sc(C(=O)NC2CCCCC2)c1C is 7.6

// EC50 value for COC(=O)c1c(NC(=O)C(C)C)sc(C(=O)Nc2ccc(Cl)cc2)c1C : 1.15

----------
Target: HCV NS4B (Hepatitis C virus genotype 1b)
Construct: NS4B was cloned, expressed and purified to establish an assay; made in house
Test: NS4B binding assay (quenching of intrinsic protein fluorescence)
Conditions: Table 3, trifluoromethylpyrimidine compound; read-out: Kd
quantity kind: pKd
Bear in mind: pKd is minus log10 of a mol/L concentration; give just that figure.

Entry Cc1nccn1-c1nc(-c2ccc(Cl)cc2)cc(C(F)(F)F)n1 , pKd reported as 5.69

----------
Biological target: HCV NS4B (Hepatitis C virus genotype 1b, UniProt Q9WMX2)
Construct: NS4B was cloned, expressed and purified to establish an assay; made in house
Sequence (Q9WMX2 1712-1972): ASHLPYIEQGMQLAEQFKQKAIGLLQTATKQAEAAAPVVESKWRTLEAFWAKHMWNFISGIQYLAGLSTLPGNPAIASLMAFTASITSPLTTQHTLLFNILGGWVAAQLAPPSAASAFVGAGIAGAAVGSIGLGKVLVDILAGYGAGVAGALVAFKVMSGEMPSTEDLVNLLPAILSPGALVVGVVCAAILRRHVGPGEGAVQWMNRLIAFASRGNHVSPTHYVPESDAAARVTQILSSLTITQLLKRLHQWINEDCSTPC
Assay: NS4B binding assay (quenching of intrinsic protein fluorescence)
Conditions: Table 7, triazinoindole compounds; read-out: Kd
// map Kd to label using class 0 = under 2 µM, class 1 = from 2 µM up to 8 µM, class 2 = 8 µM and over

GET /class?item= CCCCc1c(C)nn(-c2nnc3c4ccccc4n(CCN(C(C)C)C(C)C)c3n2)c1C
class 2

Each molecule maps to one class by Kd. Which class for CCCCc1c(C)nn(-c2nnc3c4ccccc4n(CCOC)c3n2)c1C ?
class 0

Which class does CCn1c2ccccc2c2nnc(-n3nc(C)c(C)c3C)nc21 fall in?
class 2

Form field 'band' for CCCCc1c(C)nn(-c2nnc3c(n2)[nH]c2ccccc23)c1C
class 1

Band assignment needed for CCCCc1c(C)nn(-c2nnc3c4ccccc4n(CCN(CC)CC)c3n2)c1C please.
class 0

Looking at CCc1c(C)nn(-c2nnc3c4ccccc4n(C)c3n2)c1C , which class would you pick?
class 1

Class (by measured Kd) for Cc1nn(-c2nnc3c4ccccc4n(C)c3n2)c(C)c1C
class 2

Using the reported Kd, which band applies to CCn1c2ccccc2c2nnc(-n3nc(C)c(-c4ccccc4)c3C)nc21 ?
class 1

Band of CCCCc1c(C)nn(-c2nnc3c4ccccc4n(CCSC)c3n2)c1C ?
class 0

----------
I'd be grateful if you could share measured pKd for these entries.
Molecular target: HCV NS4B (Hepatitis C virus genotype 1b, UniProt Q9WMX2)
Construct: NS4B was cloned, expressed and purified to establish an assay; made in house
Assay: NS4B binding assay (quenching of intrinsic protein fluorescence)
Conditions: Table 6, phenylthiazolylamine compounds; read-out: Kd
Scale: pKd equals -log10([C]), with [C] in mol/L.

pKd in this record for COc1ccc(Cl)cc1Nc1nc(-c2cccnc2)cs1 : 5.77

Query COc1ccc(OC)c(Nc2nc(-c3cccs3)cs2)c1 yields pKd of 6.24

CC(=O)Nc1ccc(Nc2nc(-c3cccs3)cs2)cc1 yielded pKd of 5.21

Source of measurements: patent US20070269420A1
